test: qHTS for Inhibitors of human tyrosyl-DNA phosphodiesterase 1 (TDP1): qHTS in cells in presence of CPT; details: chicken DT40 Tdp1-/-;hTDP1 cells + 20 nM CPT, ATP luminescence, 48 h; series mostly up to 46.2 µM; further: nearly all actives have a fitted effect of over 55% in size
In all, about 420,000 compounds went through this assay and about 50,000 (12%) were called active. Another 26% or so got no clear call; they are omitted. The call rests on the fitted dose curve; in most records, active means well fitted inhibition curve with a large enough effect; inconclusive means small, poorly fitted or top-dose-only effect; inactive means flat fitted curve, though single readings scatter. Shown is part of a subset that was picked to be rich in actives.
Choose one outcome from this list and give only that: active, inactive

**Q:** Which outcome was entered for the compound CC/C(O)=C1\C(=O)CC(C)(C)CC1=NCCc1nc2ccccc2[nH]1 in this test?
**A:** active
